Just for reference, PubChem BioAssay (NCI) is where these values come from.

tested on: HCT-116 colon; experiment: NCI tumour cell line growth inhibition, 48 h
Measured parameter: TGI

C[C@H](C(O)CC(=O)C(C)(C)O)[C@H]1CC[C@@]2(C)[C@@H]3CC[C@H]4C(C)(C)[C@@H](OC5OC(COC6OC(CO)C(O)C(O)C6O)C(O)C(O)C5O)CC[C@]4(C)C3=CC[C@]12C (some centres undefined) : > 100 µM
COc1cc(C(=O)N(C(=S)OC23CC4CC(CC(C4)C2)C3)c2ccccc2)cc(OC)c1OC : 46.4 µM
CN(C)c1c(C2CC(O)C(CO)O2)c(=O)c1=O (centres undefined) : > 100 µM

Switching to the query record.
[ask] Can you share its TGI? I mean this compound: C=CCOC1OC(CS(=O)(=O)O)C(OC(C)=O)C(OC(C)=O)C1OC(C)=O (centres undefined)
[reply] > 100 µM

====

test system: HCT-116 colon; assay: NCI tumour cell line growth inhibition, 48 h
Listing of recorded TGI by entry.
Your answer is read as µM, so omit the unit and give the number.

Study these solved cases before continuing.
CCOC(=O)/C=C(/C(=O)OCC)n1ccc(=O)n(CC(=O)OCC)c1=O : 2.57
CC1(C)CC[C@]2(C(=O)O)CC[C@]3(C)C(=CC[C@@H]4[C@@]5(C)CC[C@H](OC6OC(CO)C(O)C(O)C6O)C(C)(C)[C@@H]5CC[C@]43C)[C@@H]2C1 (stereo partly drawn) : 3.13
C=C(C1=CC(=O)C(C)(C)O1)[C@@H]1CC=C([C@@H]2CC[C@H]3[C@@]2(C)CC[C@H]2C(C)(C)C(=O)[C@H](OC(=O)CC(C)(O)CC(=O)O)C[C@]32C)[C@H](O)O1 (stereo partly drawn) : 24

Please find the next compound below.
[ask] What reported TGI corresponds to CCCCCCCCCC[N+](C)(C)C on HCT-116 colon?
[reply] 10.5

====

The compounds listed here are annotated with their TGI.
test system: HL-60(TB) leukemia; assay: NCI tumour cell line growth inhibition, 48 h
# output: bare number, implied unit µM

Clc1nc(-c2ccccc2)nc(Cl)c1Cl : 33
Nc1nc(Cc2ccccc2)nc(Cc2ccccc2)c1-c1ccccc1 : 60.5
O=S(=O)(NCCNc1cc(-c2cn(-c3ccccc3)nc2-c2cccc(O)c2)ccn1)c1ccc(Br)cc1 : 5.76
Cc1nc2ccccc2c(/C=C/c2ccccc2)c1C(=O)/C=C/c1ccccc1 : 6.51

[ask] Would you kindly share the measured TGI for CC(C)=CCc1c(O)c(C(=O)CC(C)C)c(O)c2c(-c3ccccc3)cc(=O)oc12 ?
[reply] 27.7

====

GI50 for assorted molecules
tested on: PC-3 prostate; experiment: NCI tumour cell line growth inhibition, 48 h

Use the examples below as a reference point.
Cc1cc(C)c(O)c(CNCCCNCc2cc(C)cc(C)c2O)c1 : 6.69 µM
C=C1C(=O)O[C@H]2[C@H]1CC/C(Cn1cc(-c3ccsc3)nn1)=C\CC[C@@]1(C)O[C@@H]21 : 4.21 µM
CCCc1n(Cc2ccc3ccccc3n2)cc[n+]1Cc1ccc2ccccc2c1 : 0.487 µM
COc1c(N2CCN(CN3C(=O)C(=O)c4ccccc43)C(C)C2)c(F)cc2c(=O)c(C(=O)O)cn(C3CC3)c12 (stereo unspecified) : > 100 µM
COC(=O)[C@H](Cc1cn(C)cn1)NC(=O)[C@@H](NC(=O)Nc1cc(C(F)(F)F)cc(C(F)(F)F)c1)C(C)(C)C : > 10 µM
COc1ccccc1N1CCN(CCCOc2ccc(C(=O)/C=C3/C(=O)Nc4ccccc43)cc2)CC1 : 12 µM
COCC(=O)NC/C=C/c1ccc2ncnc(Nc3ccc(Oc4ccc(C)nc4)c(C)c3)c2c1 : 15.5 µM
CC(C)=CCc1c(O)c(C(=O)CC(C)C)c(O)c2c(-c3ccccc3)cc(=O)oc12 : 5.71 µM

[ask] Report GI50 for CCCC(=O)Nc1c(I)cc(I)c(CC(CC)C(=O)O)c1I (stereo unspecified) please.
[reply] > 100 µM

[ask] # query: GI50 of entry Cc1ccc2c(c1)-c1oc(=O)c(-c3cc4ccccc4oc3=O)cc1C(O)O2 (stereo unspecified)
[reply] 45.2 µM
